# pIC50 annotations
System Name: Gag-Pol polyprotein [588-1027]/[588-1147] (Human immunodeficiency virus 1)
Construct: 588-1027; 588-1147
Procedure Details: HIV-1 RT Assay
pIC50: −log10 of the molar value.

Compound | pIC50
O=C1c2ccccc2C2(c3ccccc3)Sc3ccccc3N12 (stereo unspecified) | 4.40
C[C@H]1CN2C(=O)c3ccccc3[C@@]2(c2ccccc2)O1 | < 4.00
O=C1c2c(ccc3ccccc23)C2(c3ccccc3)SCCN12 (stereo unspecified) | < 4.00

Q: Could you please provide reported pIC50 for O=C(O)[C@H]1CSC2(c3ccccc3)c3ccccc3C(=O)N12 (stereo partly specified) ? Thanks!
A: < 4.00

Q: Provide only the value of recorded pIC50 for O=C1c2ccccc2C2(c3ccccc3)NCCCN12 (stereo unspecified)
A: < 5.00

Q: Give pIC50 for the following compound: O=C1c2ccccc2C2(c3ccccc3)NCCN12 (stereo unspecified)
A: < 4.00

Q: Hello, please tell me recorded pIC50 for this one: O=C1c2ccccc2C2(c3ccccc3)N1CCS2(=O)=O (stereo unspecified)
A: < 5.00

Q: Provide only the value of recorded pIC50 for O=C1c2ccccc2C2(c3ccncc3)SCCN12 (stereo unspecified)
A: < 4.52

Q: Tell me measured pIC50 for O=C1c2ncccc2C2(c3ccccc3)SCCN12 (stereo unspecified) please.
A: < 4.00

Q: For the compound O=C1c2cnccc2C2(c3ccccc3)SCCN12 (stereo unspecified) , give its measured pIC50 value.
A: < 4.00

Q: Find the measured pIC50 of `C[C@@H]1CN2C(=O)c3ccccc3[C@@]2(c2ccccc2)O1` and report it.
A: 4.42

====

System Name: Gag-Pol polyprotein [588-1027]/[588-1147] (Human immunodeficiency virus 1)
Construct: 588-1027; 588-1147
Procedure Details: HIV-1 RT Assay
Particulars: pH 7.7; 37 °C
pIC50: −log10 of the molar value.
pIC50 overview

Compound | System Name | Result
COc1ccc(C23SCCN2C(=O)c2ccccc23)cc1 (configuration not stated) | Gag-Pol polyprotein [588-1027]/[588-1147] (Human immunodeficiency virus 1) | < 4.52

Consider the additional compound presented here.
Q: Please give measured pIC50 of the following entry: O=C1c2ccccc2C2(c3ccc[nH]3)SCCN12 (configuration not stated)
A: < 4.00
